# Tested on: HEK293T (UBE3A T485A transfected, BAR Wnt reporter)
# ASSAY TEXT: Wnt reporter firefly/Renilla luciferase ratio relative to plate median (fold (linear ratio)); higher = more Wnt/beta-catenin reporter activation
# SETTINGS: concentration: 10 uM; 24 h
Whole data set: some 1,100 compounds, median “Wnt reporter firefly/Renilla luciferase ratio relative to plate median” near 1.1, cut for the highest 2% near 1.6. The list comes from a sample in which the highest values are over-represented; it also holds close analogues and randomly drawn compounds.
QUANTITY NAME: Wnt reporter firefly/Renilla luciferase ratio

{"COMPOUND": "CCOC(=O)C(C)Oc1ccc(Oc2cnc3cc(Cl)ccc3n2)cc1 (centres undefined) [Quizalofop-ethyl]", "MEAS VALUE": 1.09}
{"COMPOUND": "CCCCOC(=O)C(C)Oc1ccc(Oc2ccc(C(F)(F)F)cn2)cc1 (centres undefined) [Fluazifop-butyl]", "MEAS VALUE": 1.54}
{"COMPOUND": "CCOC(=O)C(C)Oc1ccc(Oc2nc3ccc(Cl)cc3o2)cc1 (centres undefined) [Fenoxaprop-ethyl]", "MEAS VALUE": 0.884}
{"COMPOUND": "C#CCOC(=O)[C@@H](C)Oc1ccc(Oc2ncc(Cl)cc2F)cc1 [Clodinafop-propargyl]", "MEAS VALUE": 1.25}

* * *

Each record here notes measured Wnt reporter firefly/Renilla luciferase ratio.
# System: HEK293T (UBE3A T485A transfected, BAR Wnt reporter)
# ASSAY TEXT: Wnt reporter firefly/Renilla luciferase ratio relative to plate median (fold (linear ratio)); higher = more Wnt/beta-catenin reporter activation
# SETTINGS: concentration: 0.1 uM; 24 h
The full ranking holds about 1,100 compounds; the median of “Wnt reporter firefly/Renilla luciferase ratio relative to plate median” is about 1.1, and the highest 2% start at about 1.6. The entries come from a sample that favours the highest values as a whole.
QUANTITY NAME: Wnt reporter firefly/Renilla luciferase ratio

{"COMPOUND": "CCOC(N)=O", "TEST SYSTEM": "HEK293T (UBE3A T485A transfected, BAR Wnt reporter)", "MEAS VALUE": 1.05}
{"COMPOUND": "CC(=O)c1ccc2c(c1)[C@H](NC(=O)c1ccc(F)cc1)[C@@H](O)C(C)(C)O2", "TEST SYSTEM": "HEK293T (UBE3A T485A transfected, BAR Wnt reporter)", "MEAS VALUE": 1.27}
{"COMPOUND": "CCCCCCCCCCCCCCCCOS(=O)(=O)[O-].[Na+] [Sodium hexyldecyl sulfate]", "TEST SYSTEM": "HEK293T (UBE3A T485A transfected, BAR Wnt reporter)", "MEAS VALUE": 0.784}
{"COMPOUND": "O=C(CCCN1CCC(O)(c2ccc(Cl)cc2)CC1)c1ccc(F)cc1", "TEST SYSTEM": "HEK293T (UBE3A T485A transfected, BAR Wnt reporter)", "MEAS VALUE": 1.01}
{"COMPOUND": "C[C@@H]1C[C@H]2[C@@H]3CCC4=CC(=O)C=C[C@]4(C)[C@@]3(F)[C@@H](O)C[C@]2(C)[C@@]1(O)C(=O)COP(=O)([O-])[O-].[Na+].[Na+] [Dexamethasone sodium phosphate]", "TEST SYSTEM": "HEK293T (UBE3A T485A transfected, BAR Wnt reporter)", "MEAS VALUE": 1.15}
{"COMPOUND": "Cc1nc(-c2ccc3c(c2)CCN(CCC2CCC(NC(=O)/C=C/c4ccc(F)cc4)CC2)CC3)no1.Cl (centres undefined)", "TEST SYSTEM": "HEK293T (UBE3A T485A transfected, BAR Wnt reporter)", "MEAS VALUE": 1.22}
{"COMPOUND": "[Cl-].c1ccc(C[n+]2cccc3ccccc32)cc1 [1-Benzylquinolinium chloride]", "TEST SYSTEM": "HEK293T (UBE3A T485A transfected, BAR Wnt reporter)", "MEAS VALUE": 0.993}
{"COMPOUND": "CCO[Si](CCCNC(N)=O)(OCC)OCC [1-[3-(Triethoxysilyl)propyl]urea]", "TEST SYSTEM": "HEK293T (UBE3A T485A transfected, BAR Wnt reporter)", "MEAS VALUE": 1.11}
{"COMPOUND": "NS(=O)(=O)c1cc2c(cc1Cl)NCNS2(=O)=O [Hydrochlorothiazide]", "TEST SYSTEM": "HEK293T (UBE3A T485A transfected, BAR Wnt reporter)", "MEAS VALUE": 1.41}

Numbers sourced from the supplement of paper PMC9254222.
